Assay: Irritant and ulceroid (gastrolesive) activity on the gastric mucosa
Details: in vivo; rat, oral, fasted 12 hours, killed 4 hours after administration; read-out: ED50 gastrolesive
parameter: TD50 at 4 h (µmol/kg)

1) CCCN(CCC)C(=O)C(CCC(=O)OCCCN1CCN(CCOC(=O)Cc2c(C)n(C(=O)c3ccc(Cl)cc3)c3ccc(OC)cc23)CC1)NC(=O)c1ccccc1 (racemic) [CR 604 (di-maleate)] ... 330
2) CCCN(CCC)C(=O)C(CCC(=O)OCCN1CCN(CCOC(=O)Cc2c(C)n(C(=O)c3ccc(Cl)cc3)c3ccc(OC)cc23)CC1)NC(=O)c1ccccc1 (racemic) [CR 626 (di-maleate)] ... 342
3) CCCN(CCC)C(=O)C(CCC(=O)OCCCN1CCN(CCCOC(=O)Cc2c(C)n(C(=O)c3ccc(Cl)cc3)c3ccc(OC)cc23)CC1)NC(=O)c1ccccc1 (racemic) [CR 613 (di-maleate)] ... 277

Reference for the values: patent US3985878A
